Reference source: patent US20250304677A1

Below, each of the binders is paired with its reported Fold hu/ms (koff) value.
Tested target: T1, human folate receptor alpha (hFRα), recombinant protein (human, UniProt P15328 25-233)
T1 construct: Bought recombinant proteins (His-tagged, or biotinylated via Avi-tag, e.g. AcroBiosystems FO1-H82E2, F01-H52H1); also called hFOLR1; huFOLR1
T1 sequence (P15328 25-233 limits assumed): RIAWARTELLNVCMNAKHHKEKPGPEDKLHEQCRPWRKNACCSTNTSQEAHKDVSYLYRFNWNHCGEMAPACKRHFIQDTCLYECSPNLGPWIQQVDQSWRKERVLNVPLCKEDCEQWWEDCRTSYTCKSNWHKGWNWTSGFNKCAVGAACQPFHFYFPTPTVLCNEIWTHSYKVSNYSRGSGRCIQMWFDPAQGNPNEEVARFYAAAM
Test protocol: BLI, biotinylated FOLR1 on streptavidin biosensors
Form field (numeric): enter value without unit.

Binder	Fold hu/ms (koff)
2HFO9(G54H)-NT (VHH, not shown: neurotensin tridecapeptide (NT) and any linker or tags of the fusion) VHH: QVQLQESGGGLVQAGGSLRLSCAASGSGFSGMIMGWYRQAPGKQRELVATITSHGTTNYADSVKGRFTISRDNAKNTVLLQMNSLKPEDTAVYYCNAHFPGIYWGKGTQVTVSS	6
2HFO42-NT (2HFO42 fused to neurotensin) (VHH) VHH: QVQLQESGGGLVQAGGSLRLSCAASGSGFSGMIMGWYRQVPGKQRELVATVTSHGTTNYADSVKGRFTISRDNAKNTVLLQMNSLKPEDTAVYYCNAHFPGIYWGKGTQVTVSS	7
2HFO9(I51V)-NT (VHH, not shown: neurotensin tridecapeptide (NT) and any linker or tags of the fusion) VHH: QVQLQESGGGLVQAGGSLRLSCAASGSGFSGMIMGWYRQAPGKQRELVATVTSGGTTNYADSVKGRFTISRDNAKNTVLLQMNSLKPEDTAVYYCNAHFPGIYWGKGTQVTVSS	2
2MFR67 (E72D, D72N, S74A)-NT (VHH, not shown: small tags and cut ends, Second substitution printed D72N; also called 2MFR67 triple mutant) VHH: QVQLQESGGGLVQAGGSLRLSCAASGSGFSGMIMGWYRQAPGKQRELVATVTSHGTTNYADSVKGRFTISRDNAKNTVLLQMNSLKPEDTAVYYCNAHFPGIYWGKGTQVTVSS	7

Continue with the next binder.
Enquiry: Output measured Fold hu/ms (koff) for this item: 2HFO9 (I51V,G54H)-NT (VHH, not shown: neurotensin tridecapeptide (NT) and any linker or tags of the fusion) VHH: QVQLQESGGGLVQAGGSLRLSCAASGSGFSGMIMGWYRQAPGKQRELVATVTSHGTTNYADSVKGRFTISRDNAKNTVLLQMNSLKPEDTAVYYCNAHFPGIYWGKGTQVTVSS
Return: 6
